- tested on: T1, Dmc1 (Schizosaccharomyces pombe? (fission …, UniProt O42634 1-332))
- T1 sequence: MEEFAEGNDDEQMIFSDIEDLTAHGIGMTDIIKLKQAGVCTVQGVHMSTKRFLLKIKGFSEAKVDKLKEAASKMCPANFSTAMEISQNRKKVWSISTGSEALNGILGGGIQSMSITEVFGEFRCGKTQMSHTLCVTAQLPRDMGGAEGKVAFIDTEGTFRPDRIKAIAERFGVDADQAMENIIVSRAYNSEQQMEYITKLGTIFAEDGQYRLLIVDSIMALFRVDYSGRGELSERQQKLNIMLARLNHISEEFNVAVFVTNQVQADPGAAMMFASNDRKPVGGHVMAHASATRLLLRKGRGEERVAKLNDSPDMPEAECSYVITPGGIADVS
- assay: fluorescence anisotropy; 3 mM Ca2+ in place of Mg2+, ATP?; Hill fit; 30 mM HEPES-KOH pH 7.5, 100 mM KCl, 3 mM MgCl2 or CaCl2, 1 mM DTT, 5% glycerol, 1 mM adenine nucleotide, 3 uM (nt) TAMRA-dT72, 25 C
- condition: protein: recombinant; label: 5' TAMRA; single-stranded
measured metric: Kd (nM)
The response must be a number in nM with no trailing unit.

Kd for [TAMRA]dT72 (ssDNA) DNA: TTTTTTTTTTTTTTTTTTTTTTTTTTTTTTTTTTTTTTTTTTTTTTTTTTTTTTTTTTTTTTTTTTTTTTTT is 227
